- Test Name: Drug concentration in db/db mouse plasma at 10 mg/kg/day, po qd after 14 days
- Type: ADME, organism-based
- Set-up: route oral
concentration at 336 h: recorded values
Quick note: unit goes after the number.

Consider COc1ccc(OC(=O)N(CC(=O)O)Cc2ccc(OCCc3nc(-c4ccccc4)oc3C)cc2)cc1 . Its measured concentration at 336 h is 103000 nM

Further cases:
The compound listed as Cc1oc(-c2ccccc2)nc1CCOc1cccc(C[C@@H]2C(=O)N(c3ccc(C(C)(C)C)cc3)[C@@H]2C(=O)O)c1 shows concentration at 336 h equal to 870 nM

concentration at 336 h measured on COc1ccc(N2C(=O)[C@@H](Cc3cccc(OCCc4nc(-c5ccccc5)oc4C)c3)[C@H]2C(=O)O)cc1 = 2800 nM

====

Below: a set of entries, each annotated with reported pIC50.
- Measured On: UniProt:P08684
- Test Name: Inhibition of CYP3A4 in presence of 7-benzyloxyresorufin substrate
- Format: ADME
The meaning of pIC50 here: minus log10 of the concentration in molar units.

// pIC50 lookup, compound = Cc1oc(-c2ccccc2)nc1CCOc1cccc(C[C@@H]2C(=O)N(c3ccc(C(C)(C)C)cc3)[C@@H]2C(=O)O)c1 , result: 4.72

Data point: Cc1oc(-c2ccccc2)nc1CCOc1ccc(C[C@@H]2C(=O)N(c3ccc(C(C)(C)C)cc3)[C@@H]2C(=O)O)cc1 ; pIC50 = 4.55

Query COc1ccc(-c2nc(CCOc3cccc(C[C@@H]4C(=O)N(c5ccc(C(C)(C)C)cc5)[C@@H]4C(=O)O)c3)c(C)o2)cc1 yields pIC50 of 4.92

With those in mind, consider the next compound.
COc1cccc(-c2nc(CCOc3cccc(C[C@@H]4C(=O)N(c5ccc(C(C)(C)C)cc5)[C@@H]4C(=O)O)c3)c(C)o2)c1 has a reported pIC50 of 4.72

====

- Measured On: Cytochrome P450 2C19 (Homo sapiens)
- Sequence (P33261 whole entry): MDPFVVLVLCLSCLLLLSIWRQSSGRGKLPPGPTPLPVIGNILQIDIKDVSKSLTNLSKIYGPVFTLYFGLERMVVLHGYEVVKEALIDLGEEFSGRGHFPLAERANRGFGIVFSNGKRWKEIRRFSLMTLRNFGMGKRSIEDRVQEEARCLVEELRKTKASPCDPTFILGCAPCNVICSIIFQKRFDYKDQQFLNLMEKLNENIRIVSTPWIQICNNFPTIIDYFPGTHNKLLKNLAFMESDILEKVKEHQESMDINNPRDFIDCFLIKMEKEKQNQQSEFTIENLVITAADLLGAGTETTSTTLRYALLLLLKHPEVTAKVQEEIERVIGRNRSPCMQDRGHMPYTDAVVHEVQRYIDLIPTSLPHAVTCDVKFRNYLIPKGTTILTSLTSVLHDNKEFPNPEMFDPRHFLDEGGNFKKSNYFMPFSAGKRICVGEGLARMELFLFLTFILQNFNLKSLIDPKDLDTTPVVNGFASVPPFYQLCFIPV
Quantity: pIC50
Quick note: pIC50 means taking -log10 of the concentration in moles per liter.

Briefly, pIC50 measured for COc1cccc(-c2nc(CCOc3cccc(C[C@@H]4C(=O)N(c5ccc(C(C)(C)C)cc5)[C@@H]4C(=O)O)c3)c(C)o2)c1 : 5.08

====

- Measured On: Cytochrome P450 3A4 (Homo sapiens)
- Sequence (P08684 whole entry): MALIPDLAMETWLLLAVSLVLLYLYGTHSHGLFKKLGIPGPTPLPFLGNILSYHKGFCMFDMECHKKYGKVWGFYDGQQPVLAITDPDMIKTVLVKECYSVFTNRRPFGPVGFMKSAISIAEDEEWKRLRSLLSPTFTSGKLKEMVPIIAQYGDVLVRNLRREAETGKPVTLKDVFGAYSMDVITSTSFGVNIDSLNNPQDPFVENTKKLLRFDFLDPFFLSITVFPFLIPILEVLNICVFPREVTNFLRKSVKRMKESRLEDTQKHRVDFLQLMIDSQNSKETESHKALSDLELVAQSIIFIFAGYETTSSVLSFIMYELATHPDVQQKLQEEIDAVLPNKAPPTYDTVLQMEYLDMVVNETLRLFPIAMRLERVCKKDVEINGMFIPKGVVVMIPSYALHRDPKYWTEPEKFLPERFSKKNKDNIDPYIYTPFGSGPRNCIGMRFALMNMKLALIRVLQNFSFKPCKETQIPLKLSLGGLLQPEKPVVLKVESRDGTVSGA
- Test Name: Inhibition of CYP3A4 in presence of 7-benzyloxyresorufin substrate
- Format: ADME
Quantity: pIC50
Please express pIC50 as -log10 of the molar concentration.

# example entries with known answers
COc1ccc(N2C(=O)[C@@H](Cc3ccc(OCCc4nc(-c5ccccc5)oc4C)cc3)[C@H]2C(=O)O)cc1 on Cytochrome P450 3A4 (Homo sapiens) gives pIC50 = 4.59

Bench note, Cytochrome P450 3A4 (Homo sapiens): Cc1oc(-c2cccc(Cl)c2)nc1CCOc1cccc(C[C@@H]2C(=O)N(c3ccc(C(C)(C)C)cc3)[C@@H]2C(=O)O)c1 , pIC50 reads 4.70

--- query ---
Reported Cytochrome P450 3A4 (Homo sapiens) pIC50 for item COc1ccc(N2C(=O)[C@@H](Cc3cccc(OCCc4nc(-c5ccccc5)oc4C)c3)[C@H]2C(=O)O)cc1 was 6.08

====

- Measured On: Peroxisome proliferator-activated receptor alpha (Homo sapiens, UniProt Q07869)
- Sequence (Q07869 whole entry, the tested form may be a part): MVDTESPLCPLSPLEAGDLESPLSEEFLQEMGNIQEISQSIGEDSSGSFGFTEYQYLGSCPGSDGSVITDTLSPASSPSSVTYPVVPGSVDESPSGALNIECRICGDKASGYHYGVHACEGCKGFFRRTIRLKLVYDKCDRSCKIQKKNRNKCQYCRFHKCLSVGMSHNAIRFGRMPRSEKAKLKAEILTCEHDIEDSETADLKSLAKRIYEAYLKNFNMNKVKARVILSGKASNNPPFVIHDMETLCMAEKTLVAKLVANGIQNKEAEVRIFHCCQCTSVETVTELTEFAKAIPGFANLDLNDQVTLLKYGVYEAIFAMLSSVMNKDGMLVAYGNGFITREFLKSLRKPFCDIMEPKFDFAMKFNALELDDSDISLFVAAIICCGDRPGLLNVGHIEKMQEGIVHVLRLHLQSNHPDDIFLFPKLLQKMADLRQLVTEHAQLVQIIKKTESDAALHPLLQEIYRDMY
pIC50: −log10 of the molar value.
Everything with pIC50 lower than 6 is Condition not met; everything else, including exactly 6, is Condition met.

Say whether Cc1oc(-c2ccccc2)nc1CCOc1ccc(C[C@H]2C(=O)N(c3ccc(C(C)(C)C)cc3)[C@H]2C(=O)O)cc1 shows pIC50 of 6 or more.
Condition not met

Given the entry Cc1oc(-c2ccccc2)nc1CCOc1cccc(C[C@H]2C(=O)N(c3ccc(C(C)(C)C)cc3)[C@H]2C(=O)O)c1 , answer whether its pIC50 meets or surpasses 6.
Condition not met

Can COc1ccc(-c2nc(CCOc3cccc(C[C@@H]4C(=O)N(c5ccc(C(C)(C)C)cc5)[C@@H]4C(=O)O)c3)c(C)o2)cc1 be said to have pIC50 at or above 6?
Condition met

Others:
I'd appreciate it if you could say whether COc1ccc(N2C(=O)[C@H](Cc3cccc(OCCc4nc(-c5ccccc5)oc4C)c3)[C@@H]2C(=O)O)cc1 has pIC50 at least equal to 6.
Condition not met

In plain terms: is recorded pIC50 at least 6 for COc1ccc(N2C(=O)[C@@H](Cc3cccc(OCCc4nc(-c5ccccc5)oc4C)c3)[C@H]2C(=O)O)cc1 ?
Condition met

Form field: pIC50 at least 6? Entry: COc1ccc(N2C(=O)[C@H](Cc3ccc(OCCc4nc(-c5ccccc5)oc4C)cc3)[C@@H]2C(=O)O)cc1
Condition not met

Check the entry Cc1oc(-c2ccccc2)nc1CCOc1cccc(CC2C(=O)N(c3ccc(F)cc3)C2C(=O)O)c1 (racemic) : does pIC50 equal or exceed 6?
Condition not met

====

- Measured On: Peroxisome proliferator-activated receptor alpha (Homo sapiens)
- Test Name: Agonist activity at PPARalpha in HEK293 cells by GAL4 transactivation assay
Quantity: EC50 (nM)
Express it in nM; write the number only.

// worked examples, EC50 included
Kindly note the recorded EC50 for Cc1oc(-c2ccccc2)nc1CCOc1cccc(CC2C(=O)N(c3ccc(F)cc3)C2C(=O)O)c1 (racemic) , which is 110

Value of EC50 reported for the compound Cc1oc(-c2ccc(Cl)cc2)nc1CCOc1cccc(C[C@@H]2C(=O)N(c3ccc(C(C)(C)C)cc3)[C@@H]2C(=O)O)c1 is 5

Input Cc1oc(-c2ccccc2)nc1CCOc1cccc(C[C@H]2C(=O)N(c3ccc(C(C)(C)C)cc3)[C@H]2C(=O)O)c1 . Output EC50: 5400

COc1cccc(-c2nc(CCOc3cccc(C[C@@H]4C(=O)N(c5ccc(C(C)(C)C)cc5)[C@@H]4C(=O)O)c3)c(C)o2)c1 has a reported EC50 of 40

# EC50 (compound: Cc1oc(-c2cccc(Cl)c2)nc1CCOc1cccc(C[C@@H]2C(=O)N(c3ccc(C(C)(C)C)cc3)[C@@H]2C(=O)O)c1 ) is 60

Continuing:
EC50 for Cc1oc(-c2ccccc2)nc1CCOc1ccc(C[C@H]2C(=O)N(c3ccc(C(C)(C)C)cc3)[C@H]2C(=O)O)cc1 is 970

====

Recorded below: IC50, system Peroxisome proliferator-activated receptor alpha (Homo sapiens).
Enter your answer as a number in nM; do not include the unit.

Answered cases to consult:
Summary: COc1ccc(N2C(=O)C(Cc3cccc(OCCc4nc(-c5ccccc5)oc4C)c3)C2C(=O)O)cn1 (racemic) , Peroxisome proliferator-activated receptor alpha (Homo sapiens), IC50 = 1300

Given the molecule CCCCCCCN(CCc1ccc(O[C@@](C)(CC)C(=O)O)cc1)C(=O)Nc1ccc(F)cc1F and test system Peroxisome proliferator-activated receptor alpha (Homo sapiens), the measured IC50 is 740

Proceeding to the next molecule to report its IC50.
Peroxisome proliferator-activated receptor alpha (Homo sapiens) assay, molecule COc1ccc(N2C(=O)[C@@H](Cc3ccc(OCCc4nc(-c5ccccc5)oc4C)cc3)[C@H]2C(=O)O)cc1 , recorded IC50 = 730
